# experimental system: GST-Atrophin-1 Interacting Protein PDZ domain 1 (Rattus norvegicus (Rat)), O88382
# Sequence (O88382 408-511): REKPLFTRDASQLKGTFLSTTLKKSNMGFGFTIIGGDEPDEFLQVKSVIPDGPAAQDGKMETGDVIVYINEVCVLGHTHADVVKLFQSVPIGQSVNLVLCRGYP
# assay explanation: G assay titration, PDZ 0.5 ug/ml
quantity: pKd
Formally, pKd is defined as -log10 of the concentration c, with c in mol/L.

Query: GET /values?readout=pKd&item= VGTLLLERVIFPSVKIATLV (modifications not checked) [AdenoE4 typ9]
Response: 7.70
